# Target entity: CXCR3 (Homo sapiens (Human), UniProt P49682)
# Sequence (P49682 whole entry): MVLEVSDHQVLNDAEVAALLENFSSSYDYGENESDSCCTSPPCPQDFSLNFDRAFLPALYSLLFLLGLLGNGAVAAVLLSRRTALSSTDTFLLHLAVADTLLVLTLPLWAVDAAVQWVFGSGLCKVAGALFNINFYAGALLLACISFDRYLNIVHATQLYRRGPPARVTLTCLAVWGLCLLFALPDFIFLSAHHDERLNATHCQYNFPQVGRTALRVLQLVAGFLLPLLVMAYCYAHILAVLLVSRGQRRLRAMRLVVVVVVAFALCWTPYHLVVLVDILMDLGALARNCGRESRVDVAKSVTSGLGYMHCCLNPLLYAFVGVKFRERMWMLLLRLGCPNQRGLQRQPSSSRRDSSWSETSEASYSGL
# Protocol notes: Receptor internalization assay in human whole blood (CXCR3 surface expression on CD4 positive cells, CXCL10)
# Recorded conditions: final CXCL10 9 nM, 30 min at 37° C., mean values
Entries and their measured pIC50 follow.
Reminder that pIC50 means the negative base-10 logarithm of the concentration expressed in mol/L.

Here's what some known entries look like.
CCc1nc(C)nn1CC(=O)N1CCN(c2sc(C(F)(F)F)nc2-c2cnc(C(F)(F)F)nc2)C[C@@H]1CO | 6.18
Cc1ncnn1CC(=O)N1CCN(c2sc(C(F)(F)F)nc2-c2cnc(C(F)(F)F)nc2)C[C@H]1CCO | 6.35
CCc1ccn(CC(=O)N2CCN(c3sc(C(F)(F)F)nc3-c3cnc(C(F)(F)F)nc3)C[C@H]2CCO)n1 | 7.49

Okay, next one:
Consider the molecule Cc1nc(C)n(CC(=O)N2CCN(c3sc(C(F)(F)F)nc3-c3cnc(C(F)(F)F)nc3)C[C@H]2CO)n1 and give its measured pIC50.
6.33

----------
Entries and their measured % block follow.
# Target entity: hERG K channel (Homo sapiens (Human))
# Protocol notes: hERG Q-Patch assay
# Assay type: cell-based
# Recorded conditions: concentration 3000 nM; CHO cells expressing hERG; K+ tail current 3 min after application; mean of two or three experiments
Remember to put the unit after the number in your answer.

Here's what some known entries look like.
CCc1ccn(CC(=O)N2CCN(c3sc(C(F)(F)F)nc3-c3cnc(C(F)(F)F)nc3)C[C@H]2CCO)n1 | 47%
O=C(Cn1cnc(C(F)(F)F)n1)N1CCN(c2sc(C(F)(F)F)nc2-c2cnc(C(F)(F)F)nc2)C[C@H]1CO | 7%
CC(=O)c1ncn(CC(=O)N2CCN(c3sc(C(F)(F)F)nc3-c3cnc(C(F)(F)F)nc3)C[C@@H]2CO)n1 | 3%
O=C(Cn1cnc(C(F)(F)F)n1)N1CCN(c2sc(C(F)(F)F)nc2-c2cnc(C3CC3)nc2)C[C@H]1CO | 24%
Cc1nc(C)n(CC(=O)N2CCN(c3sc(C(F)(F)F)nc3-c3cnc(C(F)(F)F)nc3)C[C@H]2CO)n1 | −4%

Okay, next one:
Consider the compound O=C(Cn1ccc(C2CC2)n1)N1CCN(c2sc(C(F)(F)F)nc2-c2cnc(C(F)(F)F)nc2)C[C@H]1CCO and give its measured % block.
60%

----------
# Target entity: CXCR3 (Homo sapiens (Human))
# Protocol notes: Receptor internalization assay in human whole blood (CXCR3 surface expression on CD4 positive cells, CXCL10)
# Assay type: cell-based
# Recorded conditions: final CXCL10 9 nM, 30 min at 37° C., mean values
pIC50: −log10 of the molar value.
Consider the following partition of reported pIC50 into named classes: Low: < 6; Mid: ≥ 6 and < 7; High: ≥ 7

Cc1ccn(CC(=O)N2CCN(c3sc(C(F)(F)F)nc3-c3cnc(C(F)(F)F)nc3)C[C@H]2CO)n1 | High
Cc1nc(-c2ncn(CC(=O)N3CCN(c4sc(C(F)(F)F)nc4-c4cnc(C(F)(F)F)nc4)C[C@@H]3CO)n2)no1 | Low
O=C(Cn1cnc(-c2ccccn2)n1)N1CCN(c2sc(C(F)(F)F)nc2-c2cnc(C(F)(F)F)nc2)C[C@@H]1CO | Low

Category of Cc1nc(C)n(CC(=O)N2CCN(c3sc(C(F)(F)F)nc3-c3cnc(C4CC4)nc3)C[C@H]2CO)n1 :
Low

Category of CC(C)(C)c1ncn(CC(=O)N2CCN(c3sc(C(F)(F)F)nc3-c3cnc(C(F)(F)F)nc3)C[C@H]2CO)n1 :
Mid

Category of CC(=O)c1ncn(CC(=O)N2CCN(c3sc(C(F)(F)F)nc3-c3cnc(C(F)(F)F)nc3)C[C@@H]2CO)n1 :
Low

Category of Cc1nc(C)n(CC(=O)N2CCN(c3sc(C(F)(F)F)nc3-c3cnc(C(F)(F)F)nc3)C[C@H]2CCO)n1 :
Mid

Category of CC(C)c1ncn(CC(=O)N2CCN(c3sc(C(F)(F)F)nc3-c3cnc(C(F)(F)F)nc3)C[C@H]2CO)n1 :
Mid

Category of O=C(Cn1ccc(C2CC2)n1)N1CCN(c2sc(C(F)(F)F)nc2-c2cnc(C(F)(F)F)nc2)C[C@H]1CCO :
High

----------
# Target entity: hERG K channel (Homo sapiens (Human), UniProt Q12809)
# Sequence (Q12809 whole entry): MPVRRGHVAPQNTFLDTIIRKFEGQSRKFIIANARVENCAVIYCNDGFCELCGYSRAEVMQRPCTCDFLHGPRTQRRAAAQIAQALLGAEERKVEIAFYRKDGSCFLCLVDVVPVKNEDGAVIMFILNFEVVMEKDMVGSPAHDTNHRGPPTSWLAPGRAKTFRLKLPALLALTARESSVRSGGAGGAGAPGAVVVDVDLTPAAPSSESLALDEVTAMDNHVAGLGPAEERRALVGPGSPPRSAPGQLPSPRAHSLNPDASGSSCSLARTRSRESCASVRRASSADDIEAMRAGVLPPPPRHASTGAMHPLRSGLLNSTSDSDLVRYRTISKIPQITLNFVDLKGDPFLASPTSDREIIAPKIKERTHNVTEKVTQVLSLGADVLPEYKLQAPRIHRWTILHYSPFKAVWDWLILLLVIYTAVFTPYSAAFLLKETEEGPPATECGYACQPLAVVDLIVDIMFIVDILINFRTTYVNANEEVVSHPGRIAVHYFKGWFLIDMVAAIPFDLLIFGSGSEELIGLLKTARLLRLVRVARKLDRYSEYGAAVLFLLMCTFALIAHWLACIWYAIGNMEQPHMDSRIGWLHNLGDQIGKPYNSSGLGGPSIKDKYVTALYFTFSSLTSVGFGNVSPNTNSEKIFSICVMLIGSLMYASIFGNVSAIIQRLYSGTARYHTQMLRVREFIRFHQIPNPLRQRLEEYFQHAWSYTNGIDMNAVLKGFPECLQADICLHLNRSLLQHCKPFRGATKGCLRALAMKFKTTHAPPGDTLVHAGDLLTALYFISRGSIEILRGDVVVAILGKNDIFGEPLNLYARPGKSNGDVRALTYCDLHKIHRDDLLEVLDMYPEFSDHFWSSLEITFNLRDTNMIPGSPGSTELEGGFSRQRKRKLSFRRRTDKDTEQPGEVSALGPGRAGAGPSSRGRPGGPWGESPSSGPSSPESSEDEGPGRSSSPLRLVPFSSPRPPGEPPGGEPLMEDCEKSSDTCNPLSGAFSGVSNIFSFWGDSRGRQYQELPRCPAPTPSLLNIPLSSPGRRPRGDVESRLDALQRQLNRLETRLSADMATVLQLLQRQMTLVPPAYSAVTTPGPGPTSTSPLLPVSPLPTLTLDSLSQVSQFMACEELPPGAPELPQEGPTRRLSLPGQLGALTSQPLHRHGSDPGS
# Protocol notes: hERG Q-Patch assay
# Assay type: cell-based
# Recorded conditions: concentration 300 nM; CHO cells expressing hERG; K+ tail current 3 min after application; mean of two or three experiments
Entries and their measured % block follow.
Quick note: give the figure in %, leave out the unit.

Here's what some known entries look like.
O=C(Cn1cnc(C(F)(F)F)n1)N1CCN(c2sc(C(F)(F)F)nc2-c2cnc(C(F)(F)F)nc2)C[C@H]1CCO [Example 28] | 6
O=C(Cn1cnc(C2CCC2)n1)N1CCN(c2sc(C(F)(F)F)nc2-c2cnc(C(F)(F)F)nc2)C[C@H]1CCO [Example 29] | 4

Consider the molecule Cc1nc(C)n(CC(=O)N2CCN(c3sc(C(F)(F)F)nc3-c3cnc(C(F)(F)F)nc3)C[C@@H]2CO)n1 [Example 12] and give its measured % block.
1

Consider the molecule COc1ccc2c(ccn2CC(=O)N2CCN(c3sc(C(F)(F)F)nc3-c3cnc(C(F)(F)F)nc3)C[C@@H]2CO)c1 [Example 15] and give its measured % block.
8

Consider the molecule COCc1ncn(CC(=O)N2CCN(c3sc(C(F)(F)F)nc3-c3cnc(C(F)(F)F)nc3)C[C@H]2CCO)n1 [Example 37] and give its measured % block.
4

Consider the molecule Cc1nc(C)n(CC(=O)N2CCN(c3sc(C(F)(F)F)nc3-c3cnc(C4CC4)nc3)C[C@H]2CO)n1 [Example 8] and give its measured % block.
19

----------
# Target entity: CXCR3 (Homo sapiens (Human))
# Protocol notes: Receptor internalization assay in human whole blood (CXCR3 surface expression on CD4 positive cells, CXCL10)
# Recorded conditions: final CXCL10 9 nM, 30 min at 37° C., mean values
Entries and their measured pIC50 follow.
Reminder that pIC50 means the negative base-10 logarithm of the concentration expressed in mol/L.

Here's what some known entries look like.
Cc1ncn(CC(=O)N2CCN(c3sc(C(F)(F)F)nc3-c3cnc(C(F)(F)F)nc3)C[C@H]2CCO)n1 | 6.99
CC(C)c1ncn(CC(=O)N2CCN(c3sc(C(F)(F)F)nc3-c3cnc(C(F)(F)F)nc3)C[C@@H]2CO)n1 | 6.47
CCOc1ncc(-c2nc(C(F)(F)F)sc2N2CCN(C(=O)Cn3nc(C)nc3C)[C@H](CO)C2)cn1 | 5.64
CC(C)(C)c1ncn(CC(=O)N2CCN(c3sc(C(F)(F)F)nc3-c3cnc(C(F)(F)F)nc3)C[C@H]2CCO)n1 | 6.77
COc1ccc2c(ccn2CC(=O)N2CCN(c3sc(C(F)(F)F)nc3-c3cnc(C(F)(F)F)nc3)C[C@@H]2CO)c1 | 5.78

Consider the compound O=C(Cn1cnc(C(F)(F)F)n1)N1CCN(c2sc(C(F)(F)F)nc2-c2cnc(C(F)(F)F)nc2)C[C@H]1CO and give its measured pIC50.
6.48

Consider the compound O=C(Cn1cnc(C(F)(F)F)n1)N1CCN(c2sc(C(F)(F)F)nc2-c2cnc(C(F)(F)F)nc2)C[C@H]1CCO and give its measured pIC50.
6.67

Consider the compound Cc1ccn(CC(=O)N2CCN(c3sc(C(F)(F)F)nc3-c3cnc(C(F)(F)F)nc3)C[C@H]2CCO)n1 and give its measured pIC50.
7.33

Consider the compound O=C(Cn1cnc2cccnc21)N1CCN(c2sc(C(F)(F)F)nc2-c2cnc(C(F)(F)F)nc2)C[C@@H]1CO and give its measured pIC50.
7.13

----------
# Target entity: hERG K channel (Homo sapiens (Human))
# Protocol notes: hERG Q-Patch assay
# Type: cell-based
# Recorded conditions: concentration 3000 nM; CHO cells expressing hERG; K+ tail current 3 min after application; mean of two or three experiments
Metric name: % block (%)
Quick note: give the figure in %, leave out the unit.

Consider the compound O=C(Cn1ccc2cc(F)ccc21)N1CCN(c2sc(C(F)(F)F)nc2-c2cnc(C(F)(F)F)nc2)C[C@@H]1CO and give its measured % block.
62

Consider the compound COCc1ncn(CC(=O)N2CCN(c3sc(C(F)(F)F)nc3-c3cnc(C(F)(F)F)nc3)C[C@@H]2CO)n1 and give its measured % block.
6

Consider the compound O=C(Cn1cnc2ccccc21)N1CCN(c2sc(C(F)(F)F)nc2-c2cnc(C(F)(F)F)nc2)C[C@@H]1CO and give its measured % block.
17

Consider the compound O=C(Cn1cnc(C(F)(F)F)n1)N1CCN(c2sc(C(F)(F)F)nc2-c2cnc(C(F)(F)F)nc2)C[C@H]1CCO and give its measured % block.
40

Consider the compound CC(C)(C)c1ncn(CC(=O)N2CCN(c3sc(C(F)(F)F)nc3-c3cnc(C(F)(F)F)nc3)C[C@H]2CO)n1 and give its measured % block.
12

Consider the compound Cc1nc(C)n(CC(=O)N2CCN(c3sc(C(F)(F)F)nc3-c3cnc(C(F)(F)F)nc3)C[C@H]2CCO)n1 and give its measured % block.
4

Consider the compound CC(C)c1ncn(CC(=O)N2CCN(c3sc(C(F)(F)F)nc3-c3cnc(C(F)(F)F)nc3)C[C@@H]2CO)n1 and give its measured % block.
11

Recorded values, source patent US10053457B2.
